Measured IC50, listed per entry for reference.
# system.name: D(2) dopamine receptor (Rattus norvegicus)
# Sequence (P61169 whole entry): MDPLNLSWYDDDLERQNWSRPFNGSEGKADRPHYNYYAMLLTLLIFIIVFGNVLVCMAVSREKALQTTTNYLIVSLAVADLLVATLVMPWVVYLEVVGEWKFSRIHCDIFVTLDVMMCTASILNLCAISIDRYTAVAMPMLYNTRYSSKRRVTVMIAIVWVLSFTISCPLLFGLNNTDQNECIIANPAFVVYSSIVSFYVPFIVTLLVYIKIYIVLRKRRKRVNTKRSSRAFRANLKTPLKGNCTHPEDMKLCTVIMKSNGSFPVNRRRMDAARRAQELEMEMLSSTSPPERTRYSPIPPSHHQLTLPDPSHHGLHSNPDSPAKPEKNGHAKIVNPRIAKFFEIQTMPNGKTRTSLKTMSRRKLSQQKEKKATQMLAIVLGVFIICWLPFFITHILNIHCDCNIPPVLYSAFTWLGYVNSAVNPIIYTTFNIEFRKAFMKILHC
# protocol.details: Neuroleptic activity in terms of [3H]spiroperidol binding to Dopamine receptor D2 in rat striatal membrane.
# Format: cell membranes

{"compound": "CCC(=O)O[C@]1(c2ccccc2)CCN(CCCC(=O)c2ccc(F)cc2)C[C@H]1C", "units.symbol": "nM", "IC50": 147}
{"compound": "CCC(=O)O[C@@]1(c2ccccc2)CCN(CCCC(=O)c2ccc(F)cc2)CC1C (mixture of isomers)", "units.symbol": "nM", "IC50": 53.8}

* * *

# Organism: Rattus norvegicus
# protocol.details: Tail-flick assay was performed to determine antinociceptive profile of the compound.
# Assay type: functional
# Set-up: unit not given here
Entries annotated with measured Activity

{"compound": "CCC(=O)O[C@]1(c2ccccc2)CCN(CCCC(=O)c2ccc(F)cc2)C[C@H]1C", "qualifying.sign": ">", "Activity": 60.8}
{"compound": "CN1CC[C@]23c4c5ccc(O)c4O[C@H]2[C@@H](O)C=C[C@H]3[C@H]1C5", "qualifying.sign": "=", "Activity": 10.6}
{"compound": "CCC(=O)O[C@@]1(c2ccccc2)CCN(CCCC(=O)c2ccc(F)cc2)CC1C (mixture of isomers)", "qualifying.sign": "=", "Activity": 1.7}
{"compound": "CCC(=O)O[C@@]1(c2ccccc2)CCN(CCCC(=O)c2ccc(F)cc2)CC1C (single isomer, unassigned; (+))", "qualifying.sign": "=", "Activity": 0.8}

These measurements were taken from ChEMBL document CHEMBL1125722.
